# Test system: epoxide hydrolase from Aspergillus niger
# Method Notes: Effect of selective reagents and co-solvents on epoxide hydrolase activity (pNSO as substrate, diol formed by HPLC)
# Assay type: biochemical
# Setup Conditions: purified EH of Aspergillus niger, pNSO substrate
Result Type: effect of selective reagent on the activity of the enzyme

Short answer please: effect of selective reagent on the activity of the enzyme, epoxide hydrolase from Aspergillus niger, entry O=C([O-])c1cc[c]([Hg][OH])cc1 [4-hydroxy-mercuribenzoate] strong inactivation

// same read-out, input: OO [hydrogen peroxide] strongly inhibit

// same read-out, input: [Cl][Hg][Cl] strong inactivation

// same read-out, input: NC(=O)CI [iodoacetamide] strong inactivation

// same read-out, input: N[C@@H](CS)C(=O)O positive effect

Others:
Short answer please: effect of selective reagent on the activity of the enzyme, epoxide hydrolase from Aspergillus niger, entry O=C(OO)c1cccc(Cl)c1 strongly inhibit

// same read-out, input: OCCS positive effect

Data provenance: patent US7060477B2
